# Tested on: UACC-62 melanoma
# Procedure text: NCI tumour cell line growth inhibition, 48 h
Reported endpoint: TGI

Answered examples (6):
Compound: C/C=C/CC(C(=O)OCC)(N(C)C(=O)OC(C)(C)C)S(=O)(=O)c1ccc(C)cc1 (configuration not stated)
TGI: > 100 µM
--
Compound: Cc1ccc(S(=O)(=O)NC(=O)C2S(=O)(=O)OCCOS2(=O)=O)cc1
TGI: > 100 µM
--
Compound: CCO/C(O)=C(/C(=N)N1CCOCC1)C(=O)Nc1cccc(C(F)(F)F)c1
TGI: > 100 µM
--
Compound: COc1cccc(/C=N/[N-]C(=O)c2ccncc2)c1[O-].[Mn+2].[OH3+]
TGI: 23.2 µM
--
Compound: O=c1cc(-c2ccc(Cl)cc2)[nH]c2ccccc12
TGI: > 100 µM
--
Compound: COc1c(C)c(C/C=C(\C)CC/C=C(\C)CC/C=C(\C)CCC=C(C)C)c(OC)c(OC)c1OC
TGI: > 100 µM

Observed TGI, UACC-62 melanoma, CC(=O)Nc1ccc(-c2nnc(SCC(=O)Nc3cccc(C)c3)o2)cc1 : 20.9 µM

Observed TGI, UACC-62 melanoma, CN1C(=O)c2ccccc2C(O)(c2ccccc2)C1(O)c1ccccc1 (configuration not stated) : > 100 µM

Observed TGI, UACC-62 melanoma, Cc1cc2c(cc1Cl)SC(N(c1ccccc1Cl)S(=O)(=O)c1ccc(Br)s1)=NS2(=O)=O : 68.4 µM

Observed TGI, UACC-62 melanoma, CC(=O)Nc1ccccc1-c1nc2ccccc2nc1-c1ccccc1 : > 100 µM

Observed TGI, UACC-62 melanoma, OC1(c2ccccc2)CC2CCC(C1)N2CCCC(O)(c1ccccc1)c1ccccc1 (configuration not stated) : 28.5 µM

Observed TGI, UACC-62 melanoma, Nc1nc(=O)n(C2CC(O)C(CO)O2)cc1F (configuration not stated) : > 100 µM

Observed TGI, UACC-62 melanoma, O=C(CCc1nc(=S)[nH][nH]1)Nc1cc(Cl)ccc1Cl : > 100 µM

Observed TGI, UACC-62 melanoma, COC(CNC(=O)CNC(=O)c1ccc(C(F)(F)F)cc1)OC : > 100 µM

Observed TGI, UACC-62 melanoma, CC(C)C[S+]1C2=C([O-])CC(C)(C)CC2=Nc2ccccc21 (configuration not stated) : > 100 µM

Observed TGI, UACC-62 melanoma, CC1CC(=O)Nc2ccc(Cl)cc2N1C(=O)CN1CCC(CCCCN(C)C)CC1 (configuration not stated) : > 100 µM

Observed TGI, UACC-62 melanoma, CC[C@H](C)[C@H](NC(=O)N(CCC#N)CCN(CCN(C(=O)N[C@@H](Cc1ccccc1)C(=O)OC)c1ccccc1)C(=O)N[C@H](C(=O)OC)C(C)C)C(=O)OC : 28.6 µM

Observed TGI, UACC-62 melanoma, Cc1c2cnccc2c(C)c2c1c1cc(O)ccc1n2C(C)C : 4.28 µM

----------
# System: A498 renal
# Procedure text: NCI tumour cell line growth inhibition, 48 h; in the data active = GI50 below about 0.43 µM; inactive = the rest
Please reply with one of these outcomes: active, inactive

These recorded examples may help you get a feel for the data.
Molecule: CN(C)c1ccc(C(=S)c2ccc(N(C)C)cc2)cc1
Assigned label: inactive

Molecule: O=C(Nc1ccc(OS(=O)(=O)c2ccc(F)cc2)cc1)C12CC3CC(CC(C3)C1)C2
Assigned label: inactive

Molecule: Cc1c(C)c2c(c(C)c1OC(=O)CCC(=O)[O-])CCC(C)(CCCCCCCCCCC[P+](c1ccccc1)(c1ccccc1)c1ccccc1)O2 (stereo unspecified)
Assigned label: active

Just curious, what result did O=c1cc(-c2ccc(Cl)cc2)[nH]c2ccccc12 get here? inactive

Just curious, what result did C[C@H]1CCC/C=C/C2CC(OC(=O)CN(C)C)CC2C(OC(=O)CN(C)C)/C=C/C(=O)O1 (stereo partly specified) get here? active

Just curious, what result did CN(C)c1ccc(/C=C/C(=O)c2ccc(Nc3nc(Nc4ccc(F)cc4)nc(Nc4ccc(F)cc4)n3)cc2)cc1 get here? inactive

----------
# Tested on: A498 renal
# Procedure text: NCI tumour cell line growth inhibition, 48 h
TGI values for the compounds below.
Quick note: give the figure in µM, leave out the unit.

Compound: COc1ccccc1C1C2=C(COC2=O)Oc2cc3c(cc21)OCO3 (stereo not given)
System: A498 renal
Reported endpoint: TGI
Value: 15.4
--
Compound: CC1(CO)C(O)CCC2(C)C1CCC1CC3CC12CCC3(O)CO (stereo not given)
System: A498 renal
Reported endpoint: TGI
Value: 99

The recorded TGI for entry COc1ccc(-c2nn(-c3cccc(Cl)c3)cc2/C=C2\NC(=S)N(c3ccc(Cl)cc3)C2=O)cc1 equals 8.56

----------
# Tested on: SN12C renal
# Procedure text: NCI tumour cell line growth inhibition, 48 h
Reported endpoint: TGI

Answered examples (4):
Structure notation: Cc1cc(C)cc(Nc2nnc3n2S(=O)(=O)c2cc(C)c(Cl)cc2S3)c1
System: SN12C renal
TGI: 48.5 µM
--
Structure notation: c1ccc2c(c1)[nH]c1cnc3c4ncccc4[nH]c3c12
System: SN12C renal
TGI: > 100 µM
--
Structure notation: O=[N+]([O-])c1cc(Br)cc2cc(Cl)cnc12
System: SN12C renal
TGI: > 100 µM
--
Structure notation: C=CC(=O)N[C@@H]1CN(c2nc(Nc3cn(C)nc3OC)c3ncn(C)c3n2)C[C@H]1F
System: SN12C renal
TGI: > 100 µM

The recorded TGI for entry O=C(Nc1ccc(OS(=O)(=O)c2ccc(F)cc2)cc1)C12CC3CC(CC(C3)C1)C2 equals > 100 µM

The recorded TGI for entry Oc1cc(O)c2c(c1)O[C@H](c1ccc(O)c(O)c1)[C@@H](O)C2 equals > 100 µM

The recorded TGI for entry COc1ccccc1-n1cnc(N)c1C(=O)c1cc(OC)c(OC)c(OC)c1 equals > 100 µM

The recorded TGI for entry N#CCc1c(F)c(F)c(F)c(F)c1F equals > 100 µM

The recorded TGI for entry CNC(=O)c1cc(Oc2ccc3nc(NC(=O)Nc4ccc(CN5CCOCC5)c(C(F)(F)F)c4)sc3c2)ccn1 equals 9.36 µM

The recorded TGI for entry Cc1cccc2c(N)c3cccc(C(=O)NCC[N+](C)(C)Cc4ccc([N+](=O)[O-])n4C)c3nc12 equals > 57.3 µM

----------
# Tested on: SK-MEL-2 melanoma
# Procedure text: NCI tumour cell line growth inhibition, 48 h
Label Fulfilled when TGI >= 20 µM; otherwise Not fulfilled.

These recorded examples may help you get a feel for the data.
Compound: C[C@@H](C1CC[C@H]2[C@@H]3[C@@H]4O[C@@H]4[C@@]4(O)CC=CC(=O)[C@]4(C)[C@H]3C[C@H](O)[C@]12C)[C@H]1C[C@]2(C)O[C@]2(C)C(=O)O1 (some centres undefined)
Assigned label: Fulfilled
//
Compound: Cc1cc(C)cc(Nc2nnc3n2S(=O)(=O)c2cc(C)c(Cl)cc2S3)c1
Assigned label: Not fulfilled
//
Compound: O=c1cc(-c2ccc(Cl)cc2)[nH]c2ccccc12
Assigned label: Fulfilled
//
Compound: N#C/C(=C\c1ccc(O)c(O)c1)C(=O)NCc1ccc(C(F)(F)F)cc1
Assigned label: Not fulfilled
//
Compound: Cc1nc2ccccn2c1NC(=O)NN1C(=O)CSC1c1ccc(Cl)cc1 (centres undefined)
Assigned label: Fulfilled

Quick check, TGI >= 20 µM? COc1ccc2c(c1)CC[C@@H]1[C@@H]2CC[C@]2(C)/C(=N/OCCN3CCCC3)CC[C@@H]12 Not fulfilled

Quick check, TGI >= 20 µM? Cc1ccc2nc(NC(=O)C(=O)C(C(=O)c3ccc4ccccc4c3)C3OC(=O)c4ccccc43)sc2c1 (centres undefined) Fulfilled

Quick check, TGI >= 20 µM? COc1ccccc1-n1cnc2c1NC(C)(C)N=C2C(N)=O Fulfilled

Quick check, TGI >= 20 µM? Nc1n[n+]([O-])c2cc([N+](=O)[O-])ccc2[n+]1[O-] Fulfilled

----------
TGI values for the compounds below.
# Test system: LOX IMVI melanoma
# Procedure text: NCI tumour cell line growth inhibition, 48 h

Compound: CCOC(=O)COc1cc(-c2ccccc2F)nc2cc3c(cc12)OCO3
TGI: > 100 µM

Below: the item to evaluate.
The recorded TGI for entry C/C=C/CC(C(=O)OCC)(N(C)C(=O)OC(C)(C)C)S(=O)(=O)c1ccc(C)cc1 (stereo not given) equals > 100 µM

----------
# Tested on: 786-0 renal
# Procedure text: NCI tumour cell line growth inhibition, 48 h
Reported endpoint: TGI

Compound: CCOC(=O)/C(Br)=C1\OC(=O)c2ccccc2-c2ccccc21
TGI: > 100 µM

Compound: O=C(Nc1ccccc1[N+](=O)[O-])/C(=N/Nc1cccc(Cl)c1)c1c(O)c2ccccc2oc1=O
TGI: > 100 µM

Compound: Cc1cc(=O)oc2c(C3=NN(C=O)C(c4ccccc4)C3)c(O)ccc12 (stereo not given)
TGI: 81.4 µM

Compound: CC12Nc3ccccc3C1=C(c1ccccc1)CC1C(=O)OC(=O)C12 (stereo not given)
TGI: > 100 µM

Compound: CC(Oc1cc2oc(=O)cc(-c3ccccc3)c2cc1Cl)C(=O)O (stereo not given)
TGI: > 100 µM

The recorded TGI for entry O=C(Nc1ccccc1)c1cc2ccccc2c(N=Nc2cccc([N+](=O)[O-])c2)c1O equals > 100 µM

The recorded TGI for entry Cc1cc(OCc2nc(N)nc(N)c2-c2ccc(Cl)c(Cl)c2)ccc1[N+](=O)[O-] equals 22.3 µM

The recorded TGI for entry Cc1cc(S(=O)(=O)/N=C(\N)Nc2cccc(O)c2)c(SCc2ccccc2)cc1Cl equals 33.5 µM

The recorded TGI for entry C=CC(=O)N[C@@H]1CN(c2nc(Nc3cn(C)nc3OC)c3ncn(C)c3n2)C[C@H]1F equals > 100 µM

The recorded TGI for entry NC(CCSCC(F)(F)F)C(=O)O (stereo not given) equals > 100 µM
